Target: T1, ActRIIB-Fc homodimer (human, UniProt Q13705 19-137)
T1 construct: extracellular domain; also called unmodified ActRIIB-Fc homodimer; ActRIIB-Fc:ActRIIB-Fc homodimer
T1 sequence (looked up): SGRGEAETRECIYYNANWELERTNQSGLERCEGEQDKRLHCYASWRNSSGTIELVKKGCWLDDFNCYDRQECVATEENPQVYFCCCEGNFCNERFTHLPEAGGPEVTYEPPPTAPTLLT
Experiment: SPR (Biacore), anti-Fc capture, ligand in flow
kon reference
Measure: kon (M⁻¹ s⁻¹)

BMP9 (ligand, UniProt Q9UK05 320-429, looked up, also called GDF2) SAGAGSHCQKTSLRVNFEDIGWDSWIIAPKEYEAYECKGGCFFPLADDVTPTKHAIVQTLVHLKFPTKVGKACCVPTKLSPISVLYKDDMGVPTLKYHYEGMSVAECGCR | 1.4e+07
GDF3 (ligand, UniProt Q9NR23 251-364, looked up, also called VGR2) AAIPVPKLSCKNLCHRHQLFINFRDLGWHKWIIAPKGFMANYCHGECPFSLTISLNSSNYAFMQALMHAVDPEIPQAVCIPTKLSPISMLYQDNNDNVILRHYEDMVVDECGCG | 1.4e+06
BMP10 (ligand, UniProt O95393 317-424, looked up) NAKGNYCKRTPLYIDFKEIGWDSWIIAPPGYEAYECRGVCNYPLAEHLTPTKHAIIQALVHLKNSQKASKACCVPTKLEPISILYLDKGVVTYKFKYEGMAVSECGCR | 2.3e+07
GDF11 (ligand, UniProt O95390 299-407, looked up, also called BMP11) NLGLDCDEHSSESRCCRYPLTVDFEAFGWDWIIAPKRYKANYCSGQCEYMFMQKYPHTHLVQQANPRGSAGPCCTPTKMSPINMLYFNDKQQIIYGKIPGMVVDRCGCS | 5e+07
